Provide the recorded inhibition at 2 µM for the entries that follow.
target: human Cereblon WT GST-tagged protein (Homo sapiens, UniProt Q96SW2); construct: purchased CISBIO 64BDCRBNPEH; assay: CRBN-binding affinity, HTRF (CEREBLON BINDING kit); details: read-out: Inhibition Rate at 2 µM (%)
Sequence (Q96SW2 whole entry): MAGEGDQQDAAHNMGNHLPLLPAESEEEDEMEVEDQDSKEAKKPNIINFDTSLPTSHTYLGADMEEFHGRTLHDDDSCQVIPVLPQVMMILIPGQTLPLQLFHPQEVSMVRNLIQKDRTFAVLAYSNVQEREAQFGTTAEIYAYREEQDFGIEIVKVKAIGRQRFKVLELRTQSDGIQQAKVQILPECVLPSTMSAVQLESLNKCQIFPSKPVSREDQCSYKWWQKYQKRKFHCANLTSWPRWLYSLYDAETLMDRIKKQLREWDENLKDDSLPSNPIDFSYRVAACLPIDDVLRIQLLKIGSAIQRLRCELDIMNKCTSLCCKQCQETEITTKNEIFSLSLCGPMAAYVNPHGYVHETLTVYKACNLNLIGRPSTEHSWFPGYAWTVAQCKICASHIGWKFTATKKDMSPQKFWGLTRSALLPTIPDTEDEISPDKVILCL

// molecule O=C1CCC(N2Cc3cc(CN4CCC(c5noc6ccccc56)CC4)ccc3C2=S)C(=O)N1 (centres unmarked) [GT-09266] , assay human Cereblon WT GST-tagged protein (Homo sapiens, UniProt Q96SW2), inhibition at 2 µM value: 80 to 100%

Entry O=C1CCC(N2Cc3c(CN4CCC(c5ccccc5C(F)(F)F)CC4)cccc3C2=S)C(=O)N1 (centres unmarked) [GT-08598] , tested on human Cereblon WT GST-tagged protein (Homo sapiens, UniProt Q96SW2), has a reported inhibition at 2 µM of 60 to 80%

The measured inhibition at 2 µM that O=C1CCC(N2Cc3c(CN4CCN(c5ccnc(Cl)c5Br)CC4)cccc3C2=S)C(=O)N1 (centres unmarked) [GT-08734] showed for human Cereblon WT GST-tagged protein (Homo sapiens, UniProt Q96SW2) is 80 to 100%

Summary: O=C1CCC(N2Cc3c(CN4CCC(N5C(=O)COc6cc(F)ccc65)CC4)cccc3C2=S)C(=O)N1 (centres unmarked) [GT-08853] , human Cereblon WT GST-tagged protein (Homo sapiens, UniProt Q96SW2), inhibition at 2 µM = 80 to 100%

Assay human Cereblon WT GST-tagged protein (Homo sapiens, UniProt Q96SW2), sample O=C1CCC(N2Cc3c(CN4CCC(N5CCCc6cc(F)ccc65)CC4)cccc3C2=S)C(=O)N1 (centres unmarked) [GT-08851] , inhibition at 2 µM read: 60 to 80%

inhibition at 2 µM on human Cereblon WT GST-tagged protein (Homo sapiens, UniProt Q96SW2) for O=C1CCC(N2Cc3cc(CN4CCN(c5cccc(Cl)n5)CC4)ccc3C2=S)C(=O)N1 (centres unmarked) [GT-09215] is 80 to 100%

Form field inhibition at 2 µM for item O=C1CCC(N2Cc3cc(CN4CC=C(c5ccsc5)CC4)ccc3C2=S)C(=O)N1 (centres unmarked) [GT-08172] on human Cereblon WT GST-tagged protein (Homo sapiens, UniProt Q96SW2): 80 to 100%

Param item: O=C1CCC(N2Cc3cc(CN4CC(c5ccnc6cc(F)ccc56)C4)ccc3C2=S)C(=O)N1 (centres unmarked) [GT-09279] ; param system: human Cereblon WT GST-tagged protein (Homo sapiens, UniProt Q96SW2); output inhibition at 2 µM: 80 to 100%

Just for reference, patent EP4745135A1 is where these values come from.
